# Assay Protocol: Quantitative High-Throughput drug screen in 47 multiple myeloma cell lines against the NCATS MIPE library collection: OCIMY1_PLB cell viability assay (AID 1918979); further: nearly all actives have a fitted effect of over 35% in size;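 on viability: 100% = DMSO-only wells and 0% = cell-free media-only wells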
# Study Conditions: OCI-MY1 myeloma viability, CellTiter-Glo ATP, 48 h; series mostly up to 45.8 µM
# From the text: PI: Beverly A. Mock Ph.D. Laboratory of Cancer Biology and Genetics, Center for Cancer Research, National Cancer Institute, National Institute of Health, Bethesda, Maryland […] 5; Detector; 425V; Luminescence; Viewlux PerkinElmer. […] 1. […] Briefly, the corresponding myeloma cell lines were screened in 1,536-well plates with 500 cells, 5-uL per well for inhibition of cell viability (assessed by measuring ATP levels with CellTiterGlo). […]
Inconclusive results are not listed. Active and inactive are the calls of the source. The call rests on the fitted dose curve; in most records, active means well fitted cell-killing curve with a large enough effect; inconclusive means small, poorly fitted or top-dose-only effect, or effect the other way; inactive means no such curve, though single readings can be large or run the other way.
Mark one answer only. Choices: label 1 (active), label 0 (inactive)

These solved cases illustrate the format of a correct answer.
Compound	Classification
CO[C@H]1C=CO[C@@]2(C)Oc3c(C)c(O)c4c(O)c(c5c(c4c3C2=O)NC2(CCN(CC(C)C)CC2)N=5)=NC(=O)C(C)=CC=C[C@H](C)[C@H](O)[C@@H](C)[C@@H](O)[C@@H](C)[C@H](OC(C)=O)[C@H]1C	label 0
CN1CCN(CCOc2cc(OC3CCOCC3)c3c(Nc4c(Cl)ccc5c4OCO5)ncnc3c2)CC1	label 0
O=C(CCc1ccc(O)cc1)c1c(O)cc(O)cc1O[C@@H]1O[C@H](CO)[C@H](O)[C@H](O)[C@H]1O	label 0
O=c1cc(-c2cccc3c2Sc2ccccc2S3)oc(N2CCOCC2)c1	label 0
C[C@]12CC[C@@H]3c4ccc(O)cc4C[C@@H](CCCCCCCCCS(=O)CCCC(F)(F)C(F)(F)F)[C@H]3[C@H]1CC[C@H]2O (some centres undefined)	label 0

Please share the test call associated with `NC(=O)c1cccc2[nH]c(-c3ccc([C@H]4CCCN4)cc3F)nc12` . label 0

Please share the test call associated with `COc1ccc(-n2c(C)c([N+](=O)[O-])c3ccc(O)cc32)cc1` . label 0

Please share the test call associated with `Cc1c(O)cccc1C(=O)N[C@@H](CSc1ccccc1)[C@H](O)CN1C[C@H]2CCCC[C@@H]2C[C@@H]1C(=O)NC(C)(C)C` . label 1

Please share the test call associated with CCOC1OC(=O)C[C@H]1NC(=O)[C@@H]1CCCN1C(=O)[C@@H](NC(=O)c1ccc(N)c(Cl)c1)C(C)(C)C (some centres undefined) . label 0

Recorded values, source PubChem BioAssay (NCATS).
